Assay: chemical genetic growth profiling, strain panel (AID 1159580);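 further: tested at 20 µM; growth read once vehicle control cultures reached saturation at 30 °C; 1 = growth at the plate median or of vehicle wells; lower values mean less growth of the strain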
Details: S. cerevisiae deletion strains, growth OD, locus YKL190W, strain CNB1, hits give low values
Screen size: about 5,500 compounds; about 2,000 (36%) were called active. Not shown: some 18% with an inconclusive outcome. This is one part of the list.
normalized growth reference
measurement_kind: normalized growth

CCOC(=O)NC1=C(C2CC2)C(=O)C(NC(=O)OCC)=C(C2CC2)C1=O | 0.994
N#Cc1ccc(-c2csc(-c3ccc(Oc4ccc(C(F)(F)F)cn4)cc3)n2)cc1 | 1.01
O=[N+]([O-])c1ccc(OCCCOc2ccc([N+](=O)[O-])cc2)cc1 | 1
COC(=O)c1c(C)cc(OC)cc1O | 0.991
NC(=O)NCCCC(N)C(=O)O (stereo unspecified) | 1.02
NC(=O)c1ncn([C@@H]2O[C@H](CO)[C@@H](O)[C@H]2O)n1 | 0.988
CC(=O)OC1CN2CCC1CC2 (stereo unspecified) | 0.997
CCN1C[C@]2(C)CC[C@H](OC)[C@]34C2[C@H](O)[C@]2(OCO[C@@]25C[C@H](OC)[C@H]2C[C@]3(O)C5[C@H]2O)C14 | 0.967
CCOC(=O)c1c(C)cc(OC)cc1O | 0.996
OC1(C(F)(F)F)CC(c2ccc3ccccc3c2)=NN1 (stereo unspecified) | 0.0734
CCCCCCC(C)OC(=O)COc1ccc(Cl)cc1Cl (stereo unspecified) | 0.997
